# test-target: BasE (Acinetobacter baumannii, UniProt A0A0D5YGP3)
# measurement-protocol: biochemical
# Format: binding
# condition-set: ratio of KD to lead compound 15
metric: fold loss of affinity/potency toward BasE relative to 15 (fold)

- compound: "O=C(O)c1cc(-c2ccccc2)cc2nn(Cc3ccncc3)cc12 [Compound 99]"
  unit-spec: "fold"
  inequality-operator: "="
  result: 1800
- compound: "O=C(O)c1cc(-c2ccc(-c3ccccc3)cc2)nc2c1cnn2Cc1ccncc1 [Compound 72]"
  unit-spec: "fold"
  inequality-operator: "="
  result: 3.5
- compound: "CCOC(=O)c1cc(-c2ccccc2)nc2c1cnn2Cc1ccncc1 [Compound 18]"
  unit-spec: "fold"
  inequality-operator: "="
  result: 60
- compound: "O=C(O)c1cc(-c2ccccc2)cc2c1ccn2Cc1ccncc1 [Compound 17]"
  unit-spec: "fold"
  inequality-operator: "="
  result: 1400
- compound: "O=C(O)c1cc(-c2cncc3ccccc23)nc2c1cnn2Cc1ccncc1 [Compound 86]"
  unit-spec: "fold"
  inequality-operator: "="
  result: 215
- compound: "O=C(O)c1cc(-c2ccccc2O)nc2c1cnn2Cc1ccncc1 [Compound 40]"
  unit-spec: "fold"
  inequality-operator: "="
  result: 7
- compound: "Cc1csc(-c2cc(C(=O)O)c3cnn(Cc4ccncc4)c3n2)c1 [Compound 78]"
  unit-spec: "fold"
  inequality-operator: "="
  result: 2.4
- compound: "O=C(O)c1cc(-c2ccccc2)cc2c1cnn2Cc1ccncc1 [Compound 16]"
  unit-spec: "fold"
  inequality-operator: "="
  result: 2
- compound: "COc1ccc(-c2cc(C(=O)O)c3cnn(Cc4ccncc4)c3n2)cc1 [Compound 62]"
  unit-spec: "fold"
  inequality-operator: "="
  result: 2.2
- compound: "O=C(O)c1cc(-c2ccc3[nH]ccc3c2)nc2c1cnn2Cc1ccncc1 [Compound 87]"
  unit-spec: "fold"
  inequality-operator: "="
  result: 1.7
- compound: "O=C(O)c1cc(-c2ccccc2)nc2c1cnn2Cc1ccc(O)cc1 [Compound 32]"
  unit-spec: "fold"
  inequality-operator: "="
  result: 15
- compound: "O=C(O)c1cc(=O)[nH]c2c1cnn2Cc1ccncc1 [Compound 98]"
  unit-spec: "fold"
  inequality-operator: ">"
  result: 2800
- compound: "Cc1ccsc1-c1cc(C(=O)O)c2cnn(Cc3ccncc3)c2n1 [Compound 77]"
  unit-spec: "fold"
  inequality-operator: "="
  result: 9
- compound: "Nc1ccc(-c2cc(C(=O)O)c3cnn(Cc4ccncc4)c3n2)cc1 [Compound 52]"
  unit-spec: "fold"
  inequality-operator: "="
  result: 2.2

Hello, the source for this data is paper PMC3621123, in case you need it.
